test system: human melanoma cells (BLM); test: WST-1 viability assay, BLM cells; format: cell-based; settings: MRC-5 versus BLM, 72 h, WST-1
Reported selectivity index (SI) by item:

Some entries whose results are on file:
[
  {
    "molecule": "COC(=O)[C@@]12C(=O)N[C@@H](Cc3ccccc3)[C@@H]1[C@H](C)C(C)=C[C@@H]2CCOCCc1cccc(Br)c1 [Compound 17i]",
    "selectivity index (SI)": 1.3
  },
  {
    "molecule": "COC(=O)[C@@]12C(=O)N[C@@H](Cc3ccccc3)[C@@H]1[C@H](C)C(C)=C[C@@H]2CCOCCc1ccc(F)cc1 [Compound 17d]",
    "selectivity index (SI)": 1.2
  },
  {
    "molecule": "C=C1[C@@H](C)[C@H]2[C@H](Cc3ccccc3)NC(=O)[C@]23[C@H](OC(C)=O)/C=C/[C@@](C)(O)C(=O)[C@@H](C)C/C=C/[C@H]3[C@@H]1O [CytD (2), cytochalasin D, reference compound]",
    "selectivity index (SI)": 0.17
  }
]

Exercise: Provide the documented selectivity index (SI) with human melanoma cells (BLM) as the system for COC(=O)[C@@]12C(=O)N[C@@H](Cc3ccccc3)[C@@H]1[C@H](C)[C@@]1(C)O[C@H]1[C@@H]2CCOCCc1ccc(OC)cc1 [Compound 22b]
Solution: >2.4

Exercise: Input COC(=O)[C@@]12C(=O)N[C@@H](Cc3ccccc3)[C@@H]1[C@H](C)C(C)=C[C@@H]2CCOCCc1ccccc1F [Compound 17f]
Solution: 1.6

Exercise: Input COC(=O)[C@@]12C(=O)N[C@@H](Cc3ccccc3)[C@@H]1[C@H](C)C(C)=C[C@@H]2CCOCCc1ccc(OC)cc1 [Compound 17b]
Solution: 1.1

---

system: human fibroblasts (MRC-5); assay: WST-1 viability assay, MRC-5 cells; assay type: cell-based; settings: MRC5, 72 h treatment, WST-1 assay, 2D culture, 0–50 μM
pIC50: −log10 of the molar value.
observation_type: pIC50

Some entries whose results are on file:
[
  {
    "compound": "COC(=O)[C@@]12C(=O)N[C@@H](Cc3ccccc3)[C@@H]1[C@H](C)C(C)=C[C@@H]2CCOCCc1ccc(OC)cc1 [Compound 17b]",
    "endpoint_result": 4.39
  },
  {
    "compound": "C=C1[C@@H](C)[C@H]2[C@H](Cc3ccccc3)NC(=O)[C@@]2(C(=O)OC)[C@@H](CCOCCc2ccccc2)[C@@H]1OC(C)=O",
    "endpoint_result": "< 4.30"
  },
  {
    "compound": "COC(=O)[C@@]12C(=O)N[C@@H](Cc3ccccc3)[C@@H]1[C@H](C)[C@@](C)(Cl)[C@H](O)[C@@H]2CCOCCc1ccccc1",
    "endpoint_result": "< 4.30"
  },
  {
    "compound": "COC(=O)[C@@]12C(=O)N[C@@H](Cc3ccccc3)[C@@H]1[C@H](C)[C@@]1(C)O[C@H]1[C@@H]2CCOCCc1ccc(OC)cc1 [Compound 22b]",
    "endpoint_result": "< 4.30"
  },
  {
    "compound": "C=C1[C@@H](C)[C@H]2[C@H](Cc3ccccc3)NC(=O)[C@]23[C@H](OC(C)=O)/C=C/[C@@](C)(O)C(=O)[C@@H](C)C/C=C/[C@H]3[C@@H]1O [CytD (2), cytochalasin D, reference compound]",
    "endpoint_result": 5.63
  }
]

Here is the next item to consider.
Exercise: What does the record list as pIC50 for COC(=O)[C@@]12C(=O)N[C@@H](Cc3ccccc3)[C@@H]1[C@H](C)[C@@](C)(O)[C@@H](O)[C@@H]2CCOCCc1ccc(OC)cc1 [Compound 23b] ?
Solution: < 4.30

---

system: human melanoma cell line BLM; experiment: Spheroid invasion assay (migrastatic activity); format: cell-based; settings: 10 µM, 24 h, BLM spheroids in collagen; DMSO control 1.02
observation_type: rel. spheroid area
Number only, please.

Some entries whose results are on file:
[
  {
    "compound": "CC1=C[C@H](CCOCCc2ccccc2)[C@]2(C(=O)O)C(=O)N[C@@H](Cc3ccccc3)[C@@H]2[C@@H]1C [Compound 29]",
    "endpoint_result": 1.05
  },
  {
    "compound": "COC(=O)[C@@]12C(=O)N[C@@H](Cc3ccccc3)[C@@H]1[C@H](C)C(C)=C[C@@H]2CCCOCc1ccccc1 [Compound 20]",
    "endpoint_result": 0.56
  },
  {
    "compound": "C=C1[C@@H](C)[C@H]2[C@H](Cc3ccccc3)NC(=O)[C@@]2(C(=O)OC)[C@@H](CCOCCc2ccccc2)[C@@H]1O [Compound 24]",
    "endpoint_result": 0.46
  }
]

Exercise: What does the record list as rel. spheroid area for COC(=O)[C@@]12C(=O)N[C@@H](Cc3ccccc3)[C@@H]1[C@H](C)[C@@]1(C)O[C@H]1[C@@H]2CCOCCc1ccccc1 [Compound 22a] ?
Solution: 1.11

Exercise: Input COC(=O)[C@@]12C(=O)N[C@@H](Cc3ccccc3)[C@@H]1[C@H](C)C(C)=C[C@@H]2CCOCCc1ccc(Cl)cc1 [Compound 17g]
Solution: 1.17

---

test system: human fibroblasts (MRC-5); experiment: WST-1 viability assay, MRC-5 cells; type: cell-based; settings: MRC5, 72 h treatment, WST-1 assay, 2D culture, 0–50 μM
Reported IC50 by item:
Unit µM implied. Number only.

[
  {
    "molecule": "COC(=O)[C@@]12C(=O)N[C@@H](Cc3ccccc3)[C@@H]1[C@H](C)[C@@](C)(O)[C@@H](O)[C@@H]2CCOCCc1ccccc1 [Compound 23a]",
    "endpoint_result": 20.9
  },
  {
    "molecule": "C=C1[C@@H](C)[C@H]2[C@H](Cc3ccccc3)NC(=O)[C@]23OC(=O)/C=C/[C@H](O)CCC[C@@H](C)C/C=C/[C@H]3[C@@H]1O [CytB (1), cytochalasin B, reference compound]",
    "endpoint_result": 0.27
  }
]

Here is the next item to consider.
Exercise: Provide the documented IC50 with human fibroblasts (MRC-5) as the system for COC(=O)[C@@]12C(=O)N[C@@H](Cc3ccccc3)[C@@H]1[C@H](C)C(C)=C[C@@H]2CCOCCc1ccc(C)cc1 [Compound 17c]
Solution: 21.5

---

system: human fibroblasts (MRC-5); test: WST-1 viability assay, MRC-5 cells; type: cell-based; details: MRC5, 72 h treatment, WST-1 assay, 2D culture, 0–50 μM
pIC50: −log10 of the molar value.
observation_type: pIC50

[
  {
    "molecule": "COC(=O)[C@@]12C(=O)N[C@@H](Cc3ccccc3)[C@@H]1C(C)=C(C)[C@@H](O)[C@@H]2CCOCCc1ccccc1",
    "endpoint_result": "< 4.30"
  },
  {
    "molecule": "COC(=O)[C@@]12C(=O)N[C@@H](Cc3ccccc3)[C@@H]1C(C)=C(C)[C@@H](OC(C)=O)[C@@H]2CCOCCc1ccccc1",
    "endpoint_result": "< 4.30"
  }
]

Exercise: What does the record list as pIC50 for COC(=O)[C@@]12C(=O)N[C@@H](Cc3ccccc3)[C@@H]1[C@H](C)C(C)=C[C@@H]2CCOCCc1ccc(F)cc1 [Compound 17d] ?
Solution: 4.47

Exercise: Input COC(=O)[C@@]12C(=O)N[C@@H](Cc3ccccc3)[C@@H]1[C@H](C)[C@@]1(C)O[C@H]1[C@@H]2CCOCCc1ccc(Br)cc1 [Compound 22h]
Solution: < 4.30

Exercise: Input COC(=O)[C@@]12C(=O)N[C@@H](Cc3ccccc3)[C@@H]1[C@H](C)[C@@]1(C)O[C@H]1[C@@H]2CCOCCc1ccccc1 [Compound 22a]
Solution: < 4.30

Exercise: Input COC(=O)[C@@]12C(=O)N[C@@H](Cc3ccccc3)[C@@H]1[C@H](C)C(C)=C[C@@H]2CCOCCc1ccc(Br)cc1 [Compound 17h]
Solution: < 4.30

Exercise: Input CC1=C[C@H](CCOCCc2ccccc2)[C@]2(CO)C(=O)N[C@@H](Cc3ccccc3)[C@@H]2[C@@H]1C
Solution: < 4.30

Exercise: Input COC(=O)[C@@]12C(=O)N[C@@H](Cc3ccccc3)[C@@H]1[C@H](C)C(C)=C[C@@H]2CCOCCc1cccc(F)c1 [Compound 17e]
Solution: 4.50

Exercise: Input COC(=O)[C@@]12C(=O)N[C@@H](Cc3ccccc3)[C@@H]1[C@H](C)C(C)=C[C@@H]2CCOCCc1ccc(Cl)cc1 [Compound 17g]
Solution: 4.65

Exercise: Input CC1=C[C@H](CCOCCc2ccccc2)[C@]2(C(=O)O)C(=O)N[C@@H](Cc3ccccc3)[C@@H]2[C@@H]1C
Solution: < 4.30

Exercise: Input COC(=O)[C@@]12C(=O)N[C@@H](Cc3ccccc3)[C@@H]1[C@H](C)C(C)=C[C@@H]2CCOCCc1ccc([N+](=O)[O-])cc1 [Compound 17j]
Solution: 4.46

Exercise: Input C=C1[C@@H](C)[C@H]2[C@H](Cc3ccccc3)NC(=O)[C@@]2(C(=O)OC)[C@@H](CCOCCc2ccccc2)[C@@H]1O
Solution: < 4.30

Exercise: Input COC(=O)[C@@]12C(=O)N[C@@H](Cc3ccccc3)[C@@H]1[C@H](C)C(C)=C[C@@H]2CCCOCc1ccccc1
Solution: 4.54

Origin of the recorded values: paper PMC10809383
